test_protocol: NCI Yeast Anticancer Drug Screen. Data for the bub3 strain (AID 167)
measurement_setup: S. cerevisiae bub3 mutant strain, at 50.0 µM, stronger effect = higher value
About 79,000 compounds went through this panel and 15% of them were active in at least one assay; those are over-represented in the sample as a whole.
Recorded growth inhibition for the following compounds
Only the number, expressed in %, is required.

Here is how some compounds turned out for growth inhibition.
[[record]]
compound = "c1ccc(Cc2cc(-c3cc(Cc4ccccc4)[nH]n3)n[nH]2)cc1"
experimental_readout = "growth inhibition"
readout_value = 5.4

[[record]]
compound = "S=C1SCN(C(c2ccccc2)c2ccccc2)CN1C(c1ccccc1)c1ccccc1"
experimental_readout = "growth inhibition"
readout_value = -4.75


Query: What measured growth inhibition goes with CC(=O)NCC(O)c1ccc([N+](=O)[O-])cc1 (centres undefined) ?
Result: -14.1

Query: Param item = COc1cc2c(cc1OC)-c1cc3cc(OC)c(OC)cc3c(C)[n+]1CC2 (tested in a mixture with another compound) ; retrieve measured growth inhibition.
Result: 11.4

Query: growth inhibition lookup needed for "CC(C)(C)NC(=O)NCc1ccc(Cl)cc1" , thanks.
Result: 1

Query: # query: growth inhibition of entry "CCC1=CC(=O)C(CC)=CC1=O"
Result: 1.95

Query: What measured growth inhibition goes with "COc1cccc(Oc2c(O)c3ccc(OC)cc3oc2=O)c1" ?
Result: 0.05
